Catalogue of compounds with associated growth
# System: BT-549 breast
# TEST NAME: NCI-60 one-dose screen, 48 h (100 = growth as untreated, 0 = no growth, -100 = all killed)
# CONDITION: 10 µM unless noted
This is part of a sample that, as a whole, favours compounds with a hit. Of some 83,000 tested, about 20% had one in any assay.
Numeric answer only, unit % assumed.

Previously resolved entries follow.
Cc1ccccc1NC(=O)CN(C)C	106
COc1cc(/C=C/C(=O)c2cccc(-n3cc(-c4ccc(Cl)cc4)[nH]c3=O)c2)cc(OC)c1OC	86.2
CCN(CC)CC(O)CNc1c2ccc(Cl)cc2nc2ccc(OC)cc12 (stereo not given)	42.9
CC(C)c1ccc(C(=O)OC(=O)c2ccc(C(C)C)cc2)cc1	87.9
CCOc1cccnc1/C=N/NC(N)=S	51.6
CN(C)c1cnccn1	73
COc1ccc(C2CC(c3ccc4ccccc4c3)=NN2c2nc(O)c(C3=c4cc(Cl)ccc4=NC3=O)s2)cc1 (stereo not given)	-26
Clc1ccc2[nH]c3c(NCCCN4CCOCC4)ncnc3c2c1	77.9
COc1ccc(-c2cc(-c3ccc(Nc4nc(Nc5ccccc5)nc(Nc5ccc(Cl)cc5)n4)cc3)nc(N)c2C#N)cc1	-50.6
CCCCOc1nc2ccc(Cl)cc2cc1/C=C/C(=O)/C=C1/CC(c2cc3cc(Cl)ccc3nc2OCCCC)Nc2ccccc2N1 (stereo not given)	96.6

-- ask Entry "Cc1ccc(/C=C(\C#N)n2nnc3cc(Cl)c(Cl)cc32)cc1" : reported growth = ?
-- reply 7.89

-- ask Moving on to the next compound: "C=C1C(=O)O[C@H]2[C@H]1CC/C(COC(=O)/C=C\C(=O)NCc1ccc(Cn3c(=O)sn(-c4ccc(OC)cc4)c3=O)cc1)=C\CC[C@@]1(C)O[C@@H]21"
-- reply -51.8

-- ask Try the compound "CNCCNc1nc2ccccc2c2c(=O)c3cc(F)ccc3oc12"
-- reply 69.9

-- ask What do you get for "CCCCCOC(=O)c1cccc(NC(=O)CN(CC)CC)c1" ?
-- reply 72.6

###

# System: IGROV1 ovarian
# TEST NAME: NCI-60 one-dose screen, 48 h (100 = growth as untreated, 0 = no growth, -100 = all killed)
# CONDITION: 10 µM unless noted
This is part of a sample that, as a whole, favours compounds with a hit. Of some 83,000 tested, about 20% had one in any assay. The source made the active and inactive calls. How the source made its calls: active means growth percent below 10; inactive means the rest.
Each entry below carries its recorded growth.

Check out these entries, answers already filled in.
COc1ccc(OC)c(Nc2nc3nonc3nc2Nc2cc(OC)ccc2OC)c1	95.3% (inactive)
N#Cc1c(-c2ccccc2)nc(SCC2CO2)nc1N1CCOCC1 (stereo unspecified)	38.1% (inactive)
Cn1cc(-c2ccc3nc(-c4ccc(CC(=O)Nc5cc(C(C)(C)C)no5)cc4)cnc3c2)cn1	-2.97% [30 µM] (active)

-- ask I have this molecule here, "O=[N+]([O-])c1ccc2[nH]cc(-c3c4ccsc4cc4[nH]c5ccc([N+](=O)[O-])cc5c34)c2c1" , and I need its recorded growth.
-- reply 21.9% (inactive)

###

# Tested on: HS 578T breast
# TEST NAME: NCI-60 one-dose screen, 48 h
# CONDITION: 10 µM unless noted
This is part of a sample that, as a whole, favours compounds with a hit. Of some 83,000 tested, about 20% had one in any assay. Activity calls are given as the source filed them. The calls were made as follows: active = growth percent below 10; inactive = the rest.
Outcomes you can answer with include only these: active, inactive

CC[C@@H](C[C@H](CCO)c1ccccc1)c1cc2ccccc2o1	inactive
COc1cc2cc(Oc3ccc(NC(=O)Nc4cc(C(F)(F)F)cc(C(F)(F)F)c4)cc3)c(C)nc2cc1OCCN1CCCCC1	active
COc1cc(NC(=O)c2cc(O)c(CC=C(C)C)c(O)c2)cc2c1O[C@]1(C)CC[C@@H](O)C(C)(C)[C@H]1C2	inactive
CCN(CC)CCCC(C)NCc1ccccc1 (configuration not stated)	inactive

-- ask Test call, this molecule: "Nc1nc(N)c(-c2ccc(Cl)cc2)c(/C=C/c2ccc([N+](=O)[O-])cc2)n1"
-- reply inactive

-- ask Would you mind doing O=C1N(c2ccccc2)C(=S)N[C@]12[C@H](c1ccccc1)C1CCCN1[C@]21C(=O)NC2C=CC(Cl)=C[C@H]21 (some centres not stated) as well?
-- reply inactive

-- ask Would you kindly repeat that for "Oc1ccccc1-c1nc2ccccn2c1NCCN1CCOCC1" ?
-- reply inactive

-- ask // same read-out, input: O=C1C(Cl)C(c2ccccc2Cl)N1n1cnnc1 (configuration not stated)
-- reply inactive

-- ask Next molecule: "O=S(=O)(Cc1ccccc1)c1nc2ccccc2s1"
-- reply inactive

-- ask Next molecule up: "CCCCNCC(=O)Nc1ccc(C(=O)OCC)cc1"
-- reply inactive

-- ask Same question for "Nc1ccc(-c2cc3c(Nc4ccc(OCc5cccc(F)c5)c(Cl)c4)ncnc3s2)cc1" please.
-- reply inactive
